These data points were gathered from patent US12365668B2.

MEASURED ON: PI3Kδ (p110δ/p85α) Recombinant Human Protein (Homo sapiens (Human), UniProt O00329)
Sequence (O00329 whole entry): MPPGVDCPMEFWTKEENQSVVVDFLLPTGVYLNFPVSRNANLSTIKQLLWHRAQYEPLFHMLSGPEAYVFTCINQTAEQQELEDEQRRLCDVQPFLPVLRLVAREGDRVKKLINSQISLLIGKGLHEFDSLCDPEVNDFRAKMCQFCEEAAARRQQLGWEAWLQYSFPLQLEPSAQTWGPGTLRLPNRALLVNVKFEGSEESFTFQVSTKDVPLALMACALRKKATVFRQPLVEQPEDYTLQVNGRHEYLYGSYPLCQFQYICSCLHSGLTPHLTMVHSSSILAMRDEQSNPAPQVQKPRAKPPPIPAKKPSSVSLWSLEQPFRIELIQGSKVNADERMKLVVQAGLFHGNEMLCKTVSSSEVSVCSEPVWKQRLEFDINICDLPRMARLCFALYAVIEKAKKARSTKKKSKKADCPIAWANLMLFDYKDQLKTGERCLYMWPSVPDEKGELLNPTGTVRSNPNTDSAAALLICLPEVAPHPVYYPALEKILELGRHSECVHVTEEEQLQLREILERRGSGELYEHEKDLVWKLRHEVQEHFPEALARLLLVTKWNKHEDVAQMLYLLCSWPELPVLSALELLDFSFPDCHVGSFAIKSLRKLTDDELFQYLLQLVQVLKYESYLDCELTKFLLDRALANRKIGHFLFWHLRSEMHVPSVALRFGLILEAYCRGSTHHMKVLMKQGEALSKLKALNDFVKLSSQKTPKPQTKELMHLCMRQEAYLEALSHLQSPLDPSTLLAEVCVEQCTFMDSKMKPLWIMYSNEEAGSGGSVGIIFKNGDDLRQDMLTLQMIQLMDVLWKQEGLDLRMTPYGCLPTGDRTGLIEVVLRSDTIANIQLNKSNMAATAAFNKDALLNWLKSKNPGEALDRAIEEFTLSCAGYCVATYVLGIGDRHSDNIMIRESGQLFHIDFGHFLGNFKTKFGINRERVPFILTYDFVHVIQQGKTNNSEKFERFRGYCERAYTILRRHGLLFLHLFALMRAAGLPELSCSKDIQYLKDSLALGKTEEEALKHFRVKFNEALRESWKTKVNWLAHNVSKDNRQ
Sequence (P27986 whole entry partner): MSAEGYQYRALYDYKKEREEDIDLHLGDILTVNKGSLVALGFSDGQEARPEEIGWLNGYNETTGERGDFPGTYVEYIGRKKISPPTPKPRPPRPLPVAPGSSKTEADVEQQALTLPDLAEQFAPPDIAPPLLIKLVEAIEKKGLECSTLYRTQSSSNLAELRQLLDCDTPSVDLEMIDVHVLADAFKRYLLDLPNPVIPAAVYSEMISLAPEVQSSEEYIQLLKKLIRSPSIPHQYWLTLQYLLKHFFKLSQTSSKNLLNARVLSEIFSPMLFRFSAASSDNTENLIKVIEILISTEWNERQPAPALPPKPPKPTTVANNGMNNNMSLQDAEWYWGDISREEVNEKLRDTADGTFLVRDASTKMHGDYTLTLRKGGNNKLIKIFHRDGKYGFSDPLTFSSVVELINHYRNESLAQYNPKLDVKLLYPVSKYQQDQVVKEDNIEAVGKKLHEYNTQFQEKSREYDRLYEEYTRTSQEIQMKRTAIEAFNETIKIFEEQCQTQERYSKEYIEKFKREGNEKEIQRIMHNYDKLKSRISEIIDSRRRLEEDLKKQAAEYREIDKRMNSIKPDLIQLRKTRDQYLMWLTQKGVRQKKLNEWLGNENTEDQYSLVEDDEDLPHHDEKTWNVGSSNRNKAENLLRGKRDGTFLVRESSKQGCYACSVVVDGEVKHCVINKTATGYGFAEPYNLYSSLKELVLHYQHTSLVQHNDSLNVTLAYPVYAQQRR
METHOD DESCRIPTION: PI3Kδ Scintillation Proximity Assay
EXPERIMENTAL CONTEXT: 20 μM PIP2, 2 μM ATP, SPA
Quick reference for IC50 among some compounds

Use the examples below as a reference point.
                                   compound    measurement
0  Cc1ccc([C@](O)(CO)C(F)F)cc1-c1cnc(N)c(C(=O)N[C@@H](C)CO)n1 (single isomer, unassigned)  100 to 500 nM
1  Cc1ccc(C(O)(CO)C(F)(F)F)cc1-c1cnc(N)c(-c2cnn(C)c2)n1 (stereo not shown)       ≤ 100 nM
2  Cc1ccc(C(O)(CO)C(F)(F)F)cc1-c1cnc(N)c(-n2cncn2)n1 (single isomer, unassigned)       ≤ 100 nM

Return the recorded IC50 value; entry: [2H]C([2H])([2H])c1ccc(C(O)(C(O)C(F)(F)F)C(F)(F)F)cc1-c1cnc(N)c(-c2c[nH]nc2C)n1 (stereo not shown) 100 to 500 nM

Return the recorded IC50 value; entry: Cc1ccc(C(O)(CO)C(F)(F)F)cc1-c1cnc(N)c(-c2ccns2)n1 (stereo not shown) ≤ 100 nM

Return the recorded IC50 value; entry: Cc1ccc([C@](O)(CO)C(F)F)cc1-c1cnc(N)c(C(=O)NC(C)C)n1 ≤ 100 nM

Return the recorded IC50 value; entry: Cc1ccc(C(O)(CO)C(F)(F)F)cc1-c1cnc(N)c(-c2cnco2)n1 (stereo not shown) ≤ 100 nM

Return the recorded IC50 value; entry: Cc1ccc(C(O)(CO)C(F)(F)F)cc1-c1cnc(N)c(-c2cnsc2)n1 (stereo not shown) ≤ 100 nM

Return the recorded IC50 value; entry: Cc1ccc(C(O)(CO)C(F)(F)F)cc1-c1cnc(N)c(C2CN(S(=O)(=O)c3ccn(C)n3)C2)n1 (stereo not shown) 100 to 500 nM
